# ASSAYED SYSTEM: T1, TREM2 on human iPSC macrophages (human, UniProt Q9NZC2 19-230)
# T1 sequence (looked up): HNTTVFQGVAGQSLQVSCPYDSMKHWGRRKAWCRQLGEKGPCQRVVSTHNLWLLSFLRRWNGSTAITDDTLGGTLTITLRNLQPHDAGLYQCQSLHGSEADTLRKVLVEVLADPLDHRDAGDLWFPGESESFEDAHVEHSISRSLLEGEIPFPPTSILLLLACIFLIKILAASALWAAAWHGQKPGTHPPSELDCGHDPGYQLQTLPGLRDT
# PROTOCOL DESCRIPTION: cell-based or functional assay
*1 amine or outer side, *2 acyl side, *3 side chain or, on linkers, in order; H or OH if unused. Bridges are numbered along the chain shown (N, C = ends). Where no end group is shown, it is not given here. [ ]: non-standard residue; d: D form. TATA = O=C(CC[*:1])N1CN(C(=O)CC[*:2])CN(C(=O)CC[*:3])C1; 1Nal = N[C@@H](Cc1cccc2ccccc12)C(=O)O; NMeA = CN[C@@H](C)C(=O)O
MEASURED PROPERTY: pSYK (µM)

BINDER: Ac-CSEYCF[1Nal]PFYHC-NH2 (linker 1-5-12 via TATA; SMILES CC(=O)N[C@H]1CSCCC(=O)N2CN3CN(C2)C(=O)CCSC[C@H](NC(=O)[C@H](Cc2ccc(O)cc2)NC(=O)[C@H](CCC(=O)O)NC(=O)[C@H](CO)NC1=O)C(=O)N[C@@H](Cc1ccccc1)C(=O)N[C@@H](Cc1cccc2ccccc12)C(=O)N1CCC[C@H]1C(=O)N[C@@H](Cc1ccccc1)C(=O)N[C@@H](Cc1ccc(O)cc1)C(=O)N[C@@H](Cc1c[nH]cn1)C(=O)N[C@H](C(N)=O)CSCCC3=O) [BCY19669]
MEASURED PROPERTY: pSYK (µM)
RESULT: 16.6 µM
//
BINDER: ACSEYCFWPFQWCA (linker 2-6-13 via TATA) [BCY19771]
MEASURED PROPERTY: pSYK (µM)
RESULT: 9.9 µM
//
BINDER: ACSEYCFWPFFLCA (linker 2-6-13 via TATA) [BCY19776]
MEASURED PROPERTY: pSYK (µM)
RESULT: 4.4 µM
//
BINDER: Ac-CSEYCFW[NMeA]FYAC (linker 1-5-12 via TATA) [BCY19303]
MEASURED PROPERTY: pSYK (µM)
RESULT: < 3.4 µM
